- System: RARb homodimer (NR concentration 270 nM)
- Experiment Description: PBM binding z-score (relative to random genomic background probes); higher = stronger binding; sequences stand for … in GC…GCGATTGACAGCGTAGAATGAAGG
Readout Label: PBM binding z-score

Residues: TTACCAAGGTGAAGGCCGTTGATCCCTCTGTAGA
Observed Value: 0.648
//
Residues: CCGACTGGGGCAGAAAGGTTACCGTACCATCCGG
Observed Value: 2.49
//
Residues: CCTTACGGGCCACTGACAGGTTATAGCATTTGGA
Observed Value: 0.8
//
Residues: CCTAGCAGGCCAATCTGGGTCACTGAAGGCTTGA
Observed Value: 2.38
//
Residues: AATACAGGGTCACTAGCCCAGAGTAGGTACGAAT
Observed Value: 2.95
//
Residues: ATATGTAGGTTGCATCCGGGTCATTCAGGCTATG
Observed Value: 2.16
//
Residues: TCTATTAGTTGATTCGGGCAACCGAAACAGCGGA
Observed Value: 0.249
//
Residues: TTACCAAGGTGAGCTGAGGTCTTTGATCCAACTC
Observed Value: 0.568
//
Residues: CCGACTGGGGCAAGGTTTCCATAACGCACAGCCA
Observed Value: 0.28
//
Residues: GGAACGAGGGCATTCGAGCTGATAGCATGGCGAT
Observed Value: 0.164
//
Residues: TCTATTAGTTGATTAGGGCAACCCAAACAGCGGA
Observed Value: 0.891
//
Residues: TAGTCTAGGTCATTGGGCCAGTATAGTACGCATC
Observed Value: 3.08
//
Residues: CGAACTAGGTCAGAACAGGACTGTGAAGGATGAT
Observed Value: 1.6
//
Residues: CATACAGGATCAGCTAGGCCAGAGTAGGGACGGC
Observed Value: -0.0161
//
Residues: CGAACTAGGTCAAGGAGAGTGAATCTCCGCACGC
Observed Value: 2.9
//
Residues: TTACCAAGGTGAAGGGCGTTGATCCCTCTGTAGA
Observed Value: 0.953
//
Residues: GCTAGTTGGTCAGTCAAAGGTCACACACCGGTCG
Observed Value: 5.2
//
Residues: GTACCAAGGTGAATAGTTCGTTGATGAGTAGGCG
Observed Value: 1.71
//
Residues: TCATCTAGGTAAACAGGTGAAAGTCCGTAAGTTA
Observed Value: 0.582
//
Residues: CCTACTTGGCCAAAGGTCATTGATTCCAATGCTC
Observed Value: 4.5
//
Residues: TCATATAGGTAAATGCTAGGTGAAAGACCGATCT
Observed Value: 0.314
//
Residues: TGAATGAGGTTAGAGATCAGGGAACGTGGCGTCG
Observed Value: 0.675
//
Residues: ATATGTAGGTTAGATCCGGGTCATTCAGGCTATG
Observed Value: 2.63
//
Residues: AATACAGGGACACTAGGCCAGAGTAGGTACGAAT
Observed Value: 0.487
//
Residues: TCTGCTAGGTCCGTTGGTCAGCTAACGAGCTGCC
Observed Value: -0.396
//
Residues: TATACAGGGTCAAAGGCCATAGTACGAATGTCGA
Observed Value: 3.79
//
Residues: TCTACCAGGCCAGAGGGTCACTCAAGAGGTACGG
Observed Value: 3
//
Residues: AGAACGCGGGCACGCTGAGTTGATAGCAGAGTAG
Observed Value: -0.459
//
Residues: ATATGTAGGTGAGCTGGGGTCATTCAGACTAGGC
Observed Value: 3.97
//
Residues: AGTTAAAGTTCAGGACGAGGTAACGTAAAGCACG
Observed Value: 3.04
//
Residues: CAAACTAGGTCACCGGAAGGTCAGAGTCCGCATG
Observed Value: 5.45

====

# key: entry, value: PBM binding z-score
- System: LXRb homodimer (NR concentration 270 nM)
- Experiment Description: PBM binding z-score (relative to random genomic background probes); higher = stronger binding; sequences stand for … in GC…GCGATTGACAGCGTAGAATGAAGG

Residues: CCGAGTAGGTTAAGGGGCATTCAGGCAACGGTGA
PBM binding z-score: -0.297
--
Residues: CCGACTGGGGCAAGCTTACCATAACGCACAGCCA
PBM binding z-score: -1.15
--
Residues: TCTCGGAGGCCACGAAGGTCAGAGCTTTCCAGAG
PBM binding z-score: -1.36
--
Residues: CCGAATGGGGCATAAGGTTACCATAAGCCAGCCC
PBM binding z-score: -0.843
--
Residues: CTCGAAAGGTAGGTTGAGGTGAGTATACGGATAA
PBM binding z-score: -0.508
--
Residues: CCGACTGGGGCAAAAGGTTACCATAAGCCAGCCC
PBM binding z-score: -1.26
--
Residues: TCTTGTAGATCAATAGAGGTTAATAAAGTGCGCT
PBM binding z-score: -0.00633
--
Residues: AGAACGAGGGCAATGAGTTGGTAGCACGGGTGGC
PBM binding z-score: -0.642
--
Residues: GGAACGAGGGCGAAGTTGATAGCATCTGTCGACG
PBM binding z-score: -0.922
--
Residues: CCTATTAGTTGACCATAAGCGCAACCGAAGCTCG
PBM binding z-score: 1.41
--
Residues: CCTAGGAGGACAGAAGGTCAGAGCTGTCCGCTTT
PBM binding z-score: -0.837
--
Residues: CAAACTAGGCCAAGAGGTCAAAGTCCGCTTCCCG
PBM binding z-score: 1.13
--
Residues: CCTACTGGGCCACGAAAGGACATTGATTCAGTGA
PBM binding z-score: -0.67
--
Residues: TCGAGTAGGTTAGGGGGATTCAGAATGGCGTCGA
PBM binding z-score: 5.63
--
Residues: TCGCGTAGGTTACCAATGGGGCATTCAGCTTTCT
PBM binding z-score: -0.67
--
Residues: AGTCAAAGTTCAGGACGAGGTGACGTAAAGCACG
PBM binding z-score: 0.0614
--
Residues: CCGAGTAGGTAATGGGGCATTCAGGCAACGGTGA
PBM binding z-score: -0.666
--
Residues: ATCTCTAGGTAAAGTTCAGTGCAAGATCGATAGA
PBM binding z-score: 0.722
--
Residues: CCTTACGGGTCACTGACTGGTTATAGCATTTGGA
PBM binding z-score: -0.0702
--
Residues: CCAGACAGGTGAGAAAGTAACTCAGCCTCGATTA
PBM binding z-score: -0.167
